Source: patent US20140241984A1

- Tgt: α-synuclein fibrils (human), P37840
- Protocol Details: SPR, BIAcore X100; fibrils immobilised on CM5, mAb injected at 0.01-10 nM
- Experimental Context: remark: other sources report otherwise

>  <Binder>
Syn-O1 (antibody, IgG2b, V domains shown) VH: EVQLVESGGGLVQPKGSLKLSCAASGFTFNTYAMHWVRQAPGKGLEWVARIRSKSSNYATYYADSVKDRFTISRDDSQSMLYLQMNNLKTEDTAMYYCVRPLKWYFDVWGTGTTVTVSS VL: QIVLTQSPAILSASPGEKVTMTCSASSTVNYMHWYQQKSGTSPKIWIYDTSKLASGVPARFSGSGSWTSYSLTISSMEAEDAATYYCQQWNSNPPTFGAGTKLELK

>  <koff (s⁻¹)>
9.36e-05

$$$$
>  <Binder>
Syn-O4 (antibody, IgG1, V domains shown) VH: EVQLVESGGGLVQPKGSLKLSCAASGFTFNTYAMHWVRQAPGKGLEWVARIRSKSSNYATYYADSVKDRFTISRDDSQSMLYLQMNNLKTEDTAMYYCVRPLKWYFDVWGTGTTVTVSS VL: QIVLTQSPAILSASPGEKVTMTCSASSTVNYMHWYQQKSGTSPKIWIYDTSKLASGVPARFSGSGSWTSYSLTISSMEAEDAATYYCQQWNSNPPTFGAGTKLELK

>  <koff (s⁻¹)>
0.000996

$$$$
>  <Binder>
Syn-O3 (antibody, IgG1, V domains shown) VH: EVQLVESGGGLVQPKGSLKLSCAASGFTFNTYAMHWVRQAPGKGLEWVARIRSKSSNYATYYADSVKDRFTISRDDSQSMLYLQMNNLKTEDTAMYYCVRPLKWYFDVWGTGTTVTVSS VL: QIVLTQSPAILSASPGEKVTMTCSASSTVNYMHWYQQKSGTSPKIWIYDTSKLASGVPARFSGSGSWTSYSLTISSMEAEDAATYYCQQWNSNPPTFGAGTKLELK

>  <koff (s⁻¹)>
0.000379

$$$$
>  <Binder>
Syn-O2 (antibody, IgG1, V domains shown) VH: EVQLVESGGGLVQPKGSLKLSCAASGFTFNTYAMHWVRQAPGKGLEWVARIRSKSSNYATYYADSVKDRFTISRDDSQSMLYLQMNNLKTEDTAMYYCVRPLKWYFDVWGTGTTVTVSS VL: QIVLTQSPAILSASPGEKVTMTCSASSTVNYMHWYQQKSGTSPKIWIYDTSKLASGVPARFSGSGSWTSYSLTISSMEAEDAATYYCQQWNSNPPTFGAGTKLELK

>  <koff (s⁻¹)>
0.00127

$$$$
